Reference source for all entries: PubChem BioAssay (NCI)

System: SK-MEL-28 melanoma
test_method_notes: NCI-60 one-dose screen, 48 h (100 = growth as untreated, 0 = no growth, -100 = all killed)
experimental_context: 10 µM unless noted
Compounds without any hit were thinned out: in the full panel of roughly 83,000, 20% have a hit.
parameter: growth (%)
Numbers only; they are read as %.

Item under review: `O=C(Cn1c(-c2ccccc2)nc2ccccc21)N=Nc1c(O)[nH]c2ccc(Cl)cc12` . Reported growth? -51

Consider next the compound COc1ccc2c(c1)C(=O)N(C)C2C1c2c(cc3c(c2OC)OCO3)CCN1C (centres undefined) in the same way. 55.9

Consider next the compound `COc1ccc(/C=C/C(=O)c2ccc(S(=O)(=O)NCCNc3nc(N(C)C)nc(N4CCOCC4)n3)cc2)cc1` in the same way. 95.1

Consider next the compound `CC[C@]12C=CCN3CC[C@]4(C(=C(C(=O)OC)C1)Nc1cc(OC)c([C@@H]5[C@H]6O[C@H]6[C@@]6(CC)CC(C(=O)OC)=C7Nc8cc(O)ccc8[C@@]78CCN5[C@@H]68)cc14)[C@@H]32` in the same way. -21.8

Consider next the compound `NC(=O)c1ccc(-c2ccc3ncnc(N4CCc5cc(F)c(Cl)cc54)c3c2)cn1` in the same way. 91.7

* * *

System: SK-MEL-5 melanoma
test_method_notes: NCI-60 one-dose screen, 48 h
experimental_context: 10 µM unless noted
This is part of a sample that, as a whole, favours compounds with a hit. Of some 83,000 tested, about 20% had one in any assay. Active and inactive are the calls of the source. Rule for the calls: active = growth percent below 10; inactive = the rest.
Assign a class; possible classes are 1.0 for active, 0.0 for inactive

Examples from the recorded data:
{"compound": "Oc1cncc(-c2ccc3ncnc(N4CCc5cc(F)c(Cl)cc54)c3c2)c1", "answer_label": 0.0}
{"compound": "CC(=O)Nc1ccc(S(=O)(=O)Nc2ccc(-c3ccc4c(c3)NC(=O)/C4=C\\c3ccc[nH]3)cc2)cc1", "answer_label": 0.0}
{"compound": "CCc1ccc(SC2c3cc(OC)ccc3Oc3nc(N)c(C#N)c(N)c32)cc1 (configuration not stated)", "answer_label": 1.0}
{"compound": "CN(C)CCCc1ccc(Nc2cnn(C)c(=O)c2Cl)cc1", "answer_label": 0.0}
{"compound": "CC[C@@]12CC(C(=O)OC)=C3Nc4cc5c(cc4[C@@]34CCN(C[C@H]3O[C@H]31)[C@@H]24)[C@@H]1[C@H](O5)[C@@H](O)[C@@]2(CC)CC(C(=O)OC)=C3Nc4cc(O)ccc4[C@@]34CCN1[C@@H]24", "answer_label": 1.0}
{"compound": "O=C1CCC(N2C(=O)c3cccc(NCCOCCOCCOCCC(=O)NCCCC(=O)NC(c4ccc5c(c4)OCO5)c4cc(Cl)c5cccnc5c4O)c3C2=O)C(=O)C1 (configuration not stated)", "answer_label": 0.0}
{"compound": "N/C(=N\\c1nc2ccccc2s1)NC(=O)Nc1ccccc1[N+](=O)[O-]", "answer_label": 1.0}
{"compound": "O=C(CSc1nnc(-c2ccc(-c3nc4ccc(Cl)cc4[nH]3)cc2)o1)Nc1ccccc1", "answer_label": 0.0}

Now look at this one.
Tell me the recorded outcome of this test for `COc1c(B(O)O)cc(F)cc1-c1nc2ccc3[nH]ncc3c2c2c1COCC2` . 0.0

* * *

As shown below, each of these molecules has a reported growth value.
Test system: HOP-92 NSCLC
test_method_notes: NCI-60 one-dose screen, 48 h (100 = growth as untreated, 0 = no growth, -100 = all killed)
experimental_context: 10 µM
Protocol: Growth inhibition of the HOP-92 human Non-Small Cell Lung tumor cell line is measured as a screen for anti-cancer activity. Cells are grown in 96 well plates and exposed to the test compound for 48 hours. Compounds are tested at a single concentration, which is 10^-5 M for most compounds. The reported endpoint is percent growth (GI% or GIPRCNT), where numbers from 0 - 100% represent growth inhibition, and numbers from -100% - 0 represent cell death. […]
This is part of a sample that, as a whole, favours compounds with a hit. Of some 83,000 tested, about 20% had one in any assay.
Numbers only; they are read as %.

Examples with answers:
{"smiles_notation": "CC/C(=C(/c1ccc(O)cc1)c1ccc(OCCN(C)C(=O)CCOCCNC(=O)Cc2ccc3c(c2)CN([C@@H]2CCC(=O)NC2=O)C3=O)cc1)c1ccccc1", "growth / %": 20.8}
{"smiles_notation": "CC/C(=C(\\c1ccc(O)cc1)c1ccc(OCCN(C)C(=O)CCOCCNC(=O)c2ccc3c(c2)CN([C@@H]2CCC(=O)NC2=O)C3=O)cc1)c1ccccc1", "growth / %": 43.7}

Item under review: `CC/C(=C(/c1ccc(O)cc1)c1ccc(OCCN(C)C(=O)COCCOCCNC(=O)c2ccc3c(c2)CN([C@@H]2CCC(=O)NC2=O)C3=O)cc1)c1ccccc1` . Reported growth? 18.2

Consider next the molecule `CC/C(=C(\c1ccc(O)cc1)c1ccc(OCCN(C)C(=O)COCCNC(=O)Cc2ccc3c(c2)CN([C@@H]2CCC(=O)NC2=O)C3=O)cc1)c1ccccc1` in the same way. -0.223

* * *

Test system: EKVX NSCLC
test_method_notes: NCI-60 one-dose screen, 48 h
experimental_context: 10 µM unless noted
Procedure: Growth inhibition of the EKVX human Non-Small Cell Lung tumor cell line is measured as a screen for anti-cancer activity. Cells are grown in 96 well plates and exposed to the test compound for 48 hours. Compounds are tested at a single concentration, which is 10^-5 M for most compounds. The reported endpoint is percent growth (GI% or GIPRCNT), where numbers from 0 - 100% represent growth inhibition, and numbers from -100% - 0 represent cell death. […]
Compounds without any hit were thinned out: in the full panel of roughly 83,000, 20% have a hit. Active and inactive are the calls of the source. How the source made its calls: active means growth percent below 10; inactive means the rest.
Assign a class; possible classes are 1 for active, -1 for inactive

{"molecule": "Cc1cccc(C)c1Nc1nnc(-c2c[nH]c3ccccc23)o1", "answer_label": -1}
{"molecule": "CS(=O)(=O)Nc1cccc(-n2cnc3cc(-c4ccc(O)cc4)ccc32)c1", "answer_label": -1}
{"molecule": "Cc1ccc(N=Nc2c(N)nn3c(-c4cc5ccccc5oc4=O)ccnc23)cc1", "answer_label": -1}
{"molecule": "COc1ccc(-c2nc3ccc(-c4nnc(SCc5ccccc5)o4)cc3[nH]2)cc1", "answer_label": 1}
{"molecule": "CCCCCCCCc1ccc(C(=O)Nc2cccc(O)c2)cc1", "answer_label": -1}

Tell me the recorded outcome of this test for `Cn1cc(-c2cc(N)n3nc(-c4c[nH]c5ccccc45)cc3n2)c2ccccc21` . 1

Consider next the molecule `COc1ccc(NC(=O)N/N=C/c2c[nH]c3ccccc23)cc1` in the same way. -1

Consider next the molecule `COc1ccc(-c2cc(C)nc3[nH]c(=O)sc23)cc1` in the same way. -1

* * *

Test system: K-562 leukemia
test_method_notes: NCI-60 one-dose screen, 48 h
experimental_context: 10 µM unless noted
Compounds without any hit were thinned out: in the full panel of roughly 83,000, 20% have a hit. Activity calls are given as the source filed them. Rule for the calls: active = growth percent below 10; inactive = the rest.
Assign a class; possible classes are Yes = active, No = inactive

Examples from the recorded data:
{"compound": "Nc1nc2cc(-c3ccc4ncnc(NCc5ccccc5)c4c3)ccc2o1", "answer_label": "No"}
{"compound": "COc1cc(/C=C/C(=O)c2cnn(-c3cc(=O)[nH]c4ccccc34)c2C)cc(OC)c1OC", "answer_label": "Yes"}
{"compound": "COc1ccc(-c2cc(C)nc3[nH]c(=O)sc23)cc1", "answer_label": "No"}
{"compound": "CCOc1ccccc1[C@H]1C(C(=O)c2ccc(Cl)cc2)C2(N[C@@H]1c1ccccc1)C(=O)Nc1ccc(Cl)cc12 (stereo partly drawn)", "answer_label": "Yes"}

Tell me the recorded outcome of this test for `COc1ccccc1NC(=O)c1ccc(NC(=O)CCl)s1` . Yes

Consider next the compound `COc1ccc(N=Nc2c(N)nn3c(-c4ccc5c(c4)C=S=C5)ccnc23)cc1` in the same way. No

Consider next the compound `Cc1ccc(C(=O)Nc2ccc(-n3ccnc3)c(C(F)(F)F)c2)cc1C#Cc1cnc2cccnn12` in the same way. Yes

Consider next the compound CCOC(=O)/C(F)=C/C1CC1C1CCN(C(=O)OC(C)(C)C)CC1 (stereo not drawn) in the same way. No

Consider next the compound `Cc1nn(-c2ccccc2)c2nc(C)n(CC(=O)N/N=C/c3cccc([N+](=O)[O-])c3)c(=O)c12` in the same way. No

Consider next the compound `O=C(NC(=S)N1CCN(c2ncnc3c2cnn3-c2ccccc2)CC1)c1ccc(F)cc1` in the same way. No

Consider next the compound `COc1ccc(NC(=O)Nc2nc3ccc([N+](=O)[O-])cc3s2)cc1` in the same way. Yes

* * *

System: SF-268 CNS
test_method_notes: NCI-60 one-dose screen, 48 h
experimental_context: 10 µM unless noted
Compounds without any hit were thinned out: in the full panel of roughly 83,000, 20% have a hit. Activity calls are given as the source filed them. The calls were made as follows: active = growth percent below 10; inactive = the rest.
Assign a class; possible classes are yes for active, no for inactive

Examples from the recorded data:
{"compound": "Cc1cnc2ccc(Oc3ccccc3-c3ccccc3)nn12", "answer_label": "no"}
{"compound": "COc1ccc2[nH]c(O)c(N=Nc3nc(-c4ccc(Br)cc4)cs3)c2c1", "answer_label": "no"}
{"compound": "Cc1cc(N=C(N)c2ccccc2)ccc1OCCCCCCCCn1ccnc1", "answer_label": "yes"}

Tell me the recorded outcome of this test for `Fc1ccc(Nc2nnc(-c3c[nH]c4ccccc34)o2)cc1` . no

Consider next the compound `COc1ccccc1NC(=O)c1ccc(NC(=O)CCl)s1` in the same way. no

Consider next the compound `COc1ccc(NC(=O)Cn2c(/C=C/c3ccc([N+](=O)[O-])cc3)nc3ccccc3c2=O)cc1` in the same way. no

Consider next the compound `O=C(CSc1nc2sc3c(c2c(=O)n1-c1ccc(Cl)cc1)CCCC3)NNC(=O)c1ccc(Br)cc1` in the same way. no

Consider next the compound `C#CCN(C)CCCOc1ccc(N(CC)C(=O)c2cc(C(C)C)c(O)cc2O)cc1Cl` in the same way. no
